Biological target: ZAP-70 (Homo sapiens, UniProt P43403)
Construct: endogenous in cells
Sequence (P43403 1-619): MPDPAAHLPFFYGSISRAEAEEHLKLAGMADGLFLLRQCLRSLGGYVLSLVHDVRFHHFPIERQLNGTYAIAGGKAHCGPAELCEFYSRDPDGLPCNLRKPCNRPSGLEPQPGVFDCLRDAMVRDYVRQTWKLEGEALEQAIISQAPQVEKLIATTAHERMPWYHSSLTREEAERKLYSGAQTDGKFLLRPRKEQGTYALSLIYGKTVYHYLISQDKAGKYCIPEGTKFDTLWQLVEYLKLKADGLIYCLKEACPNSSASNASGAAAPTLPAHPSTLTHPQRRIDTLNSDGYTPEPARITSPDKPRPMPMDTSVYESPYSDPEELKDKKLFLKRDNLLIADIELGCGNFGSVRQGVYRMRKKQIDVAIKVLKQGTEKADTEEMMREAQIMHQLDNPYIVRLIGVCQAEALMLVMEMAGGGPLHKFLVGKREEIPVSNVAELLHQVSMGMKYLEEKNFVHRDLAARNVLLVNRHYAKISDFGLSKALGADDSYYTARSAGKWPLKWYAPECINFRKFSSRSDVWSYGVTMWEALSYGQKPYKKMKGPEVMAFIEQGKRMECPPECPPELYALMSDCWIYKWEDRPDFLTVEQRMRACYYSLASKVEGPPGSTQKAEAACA
Test: ZAP-70 kinobeads assay
Conditions: competition with immobilized aminopyrido-pyrimidine ligand 24 in cell lysate; ZAP-70 detected by dot blot
Counter-ions that a name gives are not always drawn.
The entries below come with measured IC50 values attached.

Below: 3 compounds and their reported IC50.
CS(=O)(=O)Nc1ccccc1Nc1nc(Nc2ccc(F)cc2)ncc1F : 1000 to 10000 nM
COc1cc(Nc2ncc(Br)c(Nc3ccccc3NS(C)(=O)=O)n2)cc(OC)c1OC : < 100 nM
COc1cc(Nc2ncc(F)c(Nc3ccccc3NS(C)(=O)=O)n2)cc(OC)c1 : 100 to 1000 nM

I would be grateful if you could share the reported IC50 for CN(C)c1ccc(Nc2ncc(F)c(Nc3ccccc3NS(C)(=O)=O)n2)cc1 .
100 to 1000 nM

Requested field: IC50. Item: CN1C(=O)COc2cc(Nc3ncc(F)c(Nc4ccccc4NS(C)(=O)=O)n3)ccc21
100 to 1000 nM

Given the entry CCN(CC)C(=O)COc1cccc(Nc2ncc(Cl)c(Nc3ccccc3NS(C)(=O)=O)n2)c1 , report its measured IC50.
100 to 1000 nM

// IC50 lookup, key: CCOc1cccc(Nc2nc(Nc3cc(OC)c(OC)c(OC)c3)ncc2F)c1NS(C)(=O)=O
< 100 nM

Fill in: IC50 of CSc1cccc(Nc2ncc(F)c(Nc3ccccc3NS(C)(=O)=O)n2)c1 is ___
1000 to 10000 nM

Give its IC50 value. Item: COc1cc(Nc2ncc(Cl)c(Nc3ccccc3NS(C)(=O)=O)n2)ccc1OCCN1CCCCC1 [Example 142, hydrochloride]
< 100 nM

For CN1CCCCC1COc1cccc(Nc2ncc(F)c(Nc3ccccc3NS(C)(=O)=O)n2)c1 (centres unmarked) , what is its reported IC50?
100 to 1000 nM

Any idea what IC50 was measured for CS(=O)(=O)Nc1ccccc1Nc1nc(Nc2cccc(OCCN3CCOCC3)c2)ncc1F ?
100 to 1000 nM

Entry CS(=O)(=O)Nc1ccccc1Nc1nc(Nc2cccc(OC(F)F)c2)ncc1Br : reported IC50 = ?
100 to 1000 nM

Consider the compound CCOc1cc(Nc2ncc(F)c(Nc3cccc(C)c3NS(C)(=O)=O)n2)cc(OC)c1OC and give its measured IC50.
< 100 nM

Can you share its IC50? I mean this compound: Cc1cc(C)cc(Nc2ncc(F)c(Nc3ccccc3NS(C)(=O)=O)n2)c1
100 to 1000 nM

Given CS(=O)(=O)Nc1ccccc1Nc1nc(Nc2cccc(-n3cncn3)c2)ncc1Cl , state its recorded IC50.
100 to 1000 nM

Item CCNC(=O)COc1cccc(Nc2ncc(Cl)c(Nc3ccccc3NS(C)(=O)=O)n2)c1 [Example 151, 2,2,2-trifluoroacetate] has what recorded IC50?
< 100 nM

// query IC50 value for entry CS(=O)(=O)Nc1ccccc1Nc1nc(Nc2cccc(C#N)c2)ncc1Cl
100 to 1000 nM

Provenance of the data: patent US20110098288A1
